System: Saccharomyces cerevisiae; also: test concentration or dose not given here
assay: Antifungal activity against yeast AD1-8u expressing Candida albicans CaCdr1p by agar disk diffusion assay
Type: functional

{"compound": "COc1c(C)c2c(c(O)c1C/C=C(\\C)CCC(=O)O)C(=O)OC2 [MYCOPHENOLIC ACID]", "inhibition zone (IZ) (cm)": 0}
{"compound": "NC[C@H]1O[C@H](O[C@H]2[C@H](O)[C@@H](O[C@H]3O[C@H](CO)[C@@H](O)[C@H](N)[C@H]3O)[C@H](N)C[C@@H]2N)[C@H](O)[C@@H](O)[C@@H]1O [KANAMYCIN]", "inhibition zone (IZ) (cm)": 0.1}
{"compound": "COC(=O)C1=C(C)NC(C)=C(C(=O)OC)C1c1ccccc1[N+](=O)[O-] [NIFEDIPINE]", "inhibition zone (IZ) (cm)": 0}
{"compound": "OCCN1CCN(CCCN2c3ccccc3Sc3ccc(C(F)(F)F)cc32)CC1 [FLUPHENAZINE]", "inhibition zone (IZ) (cm)": 0.3}
{"compound": "Clc1ccccc1C(c1ccccc1)(c1ccccc1)n1ccnc1 [CLOTRIMAZOLE]", "inhibition zone (IZ) (cm)": 0.7}

Data provenance: ChEMBL document CHEMBL1275276
